Tested on: Lolium perenne (LOLPE)
test.description: Example B post-emergence herbicidal test, LOLPE
Format: in vivo
condition.summary: Lolium perenne, 312 h, rate 250 g/ha, evaluated after 13 days, scale 0-100, read-out: Post-emergence activity LOLPE (100=total damage to plant; 0=no damage to plant)
Protocol: Seeds of a variety of test species were sown in standard soil in pots. […] After 13 days for pre and post-emergence, the test was evaluated (100=total damage to plant; 0=no damage to plant). […]
reported.property: pest or weed control at 250 g/ha
Be sure to follow the number with its unit.

For Cc1cc(C)c(C2C(=O)C/C(=C\C3CCOC3)C2=O)c(C)c1 (centres unmarked) [Compound T17] , what is its reported pest or weed control at 250 g/ha?
100%

Record: Cc1cc(C)c(C2=C(OC(=O)Oc3ccccc3)CC(CC3CCOC3)C2=O)c(C)c1 (centres unmarked) [Compound P26]
100%

Record: Cc1cc(Br)cc(C)c1C1C(=O)CC(CC2CCOC2)C1=O (centres unmarked) [Compound T160]
100%

Record: Cc1cc(C)c(C2C(=O)CC(CC3CCN(C(=O)Oc4ccccc4)CC3)C2=O)c(C)c1 (centres unmarked) [Compound T68]
90%

Record: Cc1cc(Br)cc(C)c1C1C(=O)CC(CC2CCOCC2)C1=O (centres unmarked) [Compound T138]
90%

Record: Cc1cc(C)c(C2C(=O)CC(CC3CCOC(C)(C)C3)C2=O)c(C)c1 (centres unmarked) [Compound T39]
100%

Record: Cc1cc(C)c(C2C(=O)CC(CC3CCN(C(=O)C(F)(F)C(F)F)CC3)C2=O)c(C)c1 (centres unmarked) [Compound T161]
100%

Record: Cc1cc(C)c(C2=C(OC(=O)C(C)(C)C)CC(CC3CCOCC3)C2=O)c(C)c1 (centres unmarked) [Compound P5]
100%

Record: Cc1cc(C)c(C2=C(OC(=O)C(C)(C)C)C/C(=C\C3CCOCC3)C2=O)c(C)c1 [Compound P11]
100%

Record: Cc1cc(C)c(C2C(=O)CC(CC3CCN(S(=O)(=O)C(C)C)CC3)C2=O)c(C)c1 (centres unmarked) [Compound T93]
70%

Record: Cc1cc(C)c(C2C(=O)CC(CC3CCN(C(=O)c4c(C)noc4C)C3)C2=O)c(C)c1 (centres unmarked) [Compound T148]
70%

* * *

Test system: Lolium perenne (LOLPE)
test.description: Example B post-emergence herbicidal test, LOLPE
Format: in vivo
condition.summary: Lolium perenne, 312 h, rate 250 g/ha, evaluated after 13 days, scale 0-100, read-out: Post-emergence activity LOLPE (100=total damage to plant; 0=no damage to plant)
reported.property: pest or weed control at 250 g/ha (%)
A number alone suffices; assume %.

For Cc1cc(C)c(C2C(=O)CC(CC3CCN(C(=O)C(C)(C)C)CC3)C2=O)c(C)c1 (stereo not shown) [Compound T79] , what is its reported pest or weed control at 250 g/ha?
60

Record: Cc1cc(C)c(C2=C(O)CC(CC3CCOCC3)C2=O)c(C)c1 (stereo not shown) [Compound P67]
100

Record: Cc1cc(C)c(C2C(=O)CC(CC3CCN(C(=O)c4cccc(Cl)c4)CC3)C2=O)c(C)c1 (stereo not shown) [Compound T73]
80

Record: Cc1cc(C)c(C2C(=O)CC(CC3CCN(C(=O)c4c(C)noc4C)CC3)C2=O)c(C)c1 (stereo not shown) [Compound T118]
30

Record: Cc1cc(C)c(C2=C(OC(=O)c3ccccc3)CC(CC3CCOC3)C2=O)c(C)c1 (stereo not shown) [Compound P17]
100

Record: Cc1cc(C)c(C2C(=O)CC(CC3CCN(C(=O)C4CCCC4)CC3)C2=O)c(C)c1 (stereo not shown) [Compound T114]
50

Record: Cc1cc(C)c(C2=C(OC(=O)C(C)(C)C)CC(CC3COCCO3)C2=O)c(C)c1 (stereo not shown) [Compound P49]
100
